study_conditions: in methanol, 313.15 K
experimental_endpoint: solubility (mole fraction)

>>> print(df.to_string())
                mol  number
0  c1cnc2[nH]ccc2c1    0.33

###

study_conditions: in ethanol, 293.15 K
experimental_endpoint: solubility (mole fraction)

In [3]: df
Out[3]:
                mol       experimental_endpoint  number
0  c1cnc2[nH]ccc2c1  solubility (mole fraction)   0.211

###

study_conditions: in acetonitrile, 293.15 K
experimental_endpoint: solubility (mole fraction)

In [3]: df
Out[3]:
                mol       experimental_endpoint  number
0  c1cnc2[nH]ccc2c1  solubility (mole fraction)   0.134

Data provenance is BigSolDB 2.1.
